Values from BindingDB's records for PubMed 33764065

assay: Inhibition of human non pancreatic secretory phospholipase A2 incubated for 30 mins by plate reader analysis
RECORDED ENDPOINT: pIC50
Just the number, please; pIC50 means minus log10 of the concentration in mol/L.

// pIC50 lookup, key: COc1ccc2c(c1)c(CC(=O)O)c(C)n2Cc1ccccc1 4.87

* * *

assay: Binding affinity to bovine brain membrane BzR assessed as inhibition constant
RECORDED ENDPOINT: Ki
Could you give the number and then its unit, please?

// Ki lookup, key: O=C(NCc1ccccc1)C(=O)c1c[nH]c2ccc([N+](=O)[O-])cc12 117 nM
